The measurements presented in this section are drawn from patent US20250304643A1.

target: rat GLP-2R (Rattus norvegicus); construct: expressed in transfected cells; host or cells: COS-7; assay: HitHunter cAMP assay in transiently transfected COS-7 cells, rat GLP-2R; assay type: cell-based; settings: Emax normalized to highest concentration of endogenous ligand
Sequence (Q9Z0W0 whole entry): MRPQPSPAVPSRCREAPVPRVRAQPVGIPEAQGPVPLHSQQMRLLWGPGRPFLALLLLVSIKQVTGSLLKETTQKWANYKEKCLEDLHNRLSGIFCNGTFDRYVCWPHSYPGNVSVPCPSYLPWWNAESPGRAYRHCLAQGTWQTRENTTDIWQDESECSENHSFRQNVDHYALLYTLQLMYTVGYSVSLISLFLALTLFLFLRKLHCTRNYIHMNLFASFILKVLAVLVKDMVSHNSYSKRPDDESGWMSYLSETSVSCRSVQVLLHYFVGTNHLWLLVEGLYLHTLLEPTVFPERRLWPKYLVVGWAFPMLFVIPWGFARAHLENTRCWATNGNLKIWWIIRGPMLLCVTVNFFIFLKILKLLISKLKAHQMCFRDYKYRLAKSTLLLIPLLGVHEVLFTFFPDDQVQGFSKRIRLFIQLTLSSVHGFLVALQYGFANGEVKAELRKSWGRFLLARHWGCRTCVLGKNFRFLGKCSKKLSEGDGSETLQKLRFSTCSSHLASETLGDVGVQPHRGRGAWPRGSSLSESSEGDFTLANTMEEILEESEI
Kindly return T if reported rGLP-2R Efficacy (%) is no lower than 90%; return F if it is lower.

[[record]]
substance = "H-Aib-DGTFISDY-K(γGlu-C16)-TILDNLAARDFINWLIQTKITK-OH [Compound no. 11]"
cat = "T"

[[record]]
substance = "H-Aib-DG-K(γGlu-C16 diacid)-FISDYST-Aib-LDNLAARDFINWLIQTKITK-OH [Compound no. 25]"
cat = "F"

[[record]]
substance = "H-Aib-DGTFISDY-K(γGlu-C10)-TILDKLAARDFIEWLIATKITK-OH [Compound no. 31]"
cat = "F"

[[record]]
substance = "H-Aib-DGTFISDY-K(γGlu-C16)-TILDNLAARDFINWLIQTKGKKNDWKHNITQ-NH2 [Compound no. 14]"
cat = "T"

[[record]]
substance = "H-Aib-DGTFISDY-K(γGlu-C16)-TAib-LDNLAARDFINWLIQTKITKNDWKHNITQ-OH [Compound no. 37]"
cat = "F"

[[record]]
substance = "(C16)HADGTFISDYSTAibLDNLAARDFINWLIQTKITKNDWKHNITQ [Compound no. 53]"
cat = "F"

[[record]]
substance = "H-Aib-DG-K(γGlu-C16)-FISDYSTILDNLAARDFINWLIQTKITK-OH [Compound no. 9]"
cat = "F"


---

molecular target: human GLP-2R (Homo sapiens, UniProt O95838); construct: host or cells: COS-7; assay: HitHunter cAMP assay in transiently transfected COS-7 cells, human GLP-2R; format: cell-based; details: Emax normalized to highest concentration of endogenous ligand; Table 2;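 note: cells kept 30 min at 37 °C in buffer with 1 mM IBMX, then given ligand for another 30 min at 37 °C before cAMP readout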
Sequence (O95838 whole entry): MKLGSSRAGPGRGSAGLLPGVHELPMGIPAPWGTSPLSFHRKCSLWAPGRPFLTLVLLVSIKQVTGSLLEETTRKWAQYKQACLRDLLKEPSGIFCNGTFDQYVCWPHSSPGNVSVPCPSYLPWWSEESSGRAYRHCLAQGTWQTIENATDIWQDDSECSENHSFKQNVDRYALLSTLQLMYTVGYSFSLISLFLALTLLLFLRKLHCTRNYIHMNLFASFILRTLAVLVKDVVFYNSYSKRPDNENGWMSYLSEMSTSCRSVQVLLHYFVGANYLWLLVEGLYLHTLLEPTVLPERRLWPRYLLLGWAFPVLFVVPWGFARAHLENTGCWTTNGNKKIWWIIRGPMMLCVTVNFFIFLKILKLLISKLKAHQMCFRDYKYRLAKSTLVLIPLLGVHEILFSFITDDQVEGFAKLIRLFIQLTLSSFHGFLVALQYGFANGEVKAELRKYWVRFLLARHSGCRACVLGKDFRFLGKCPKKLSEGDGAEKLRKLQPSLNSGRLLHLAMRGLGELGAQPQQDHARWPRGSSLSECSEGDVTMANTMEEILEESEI
QUANTITY: Efficacy GLP-2R

[[record]]
substance = "H-Aib-DGTF-K(γGlu-C16)-SDYSTILDNLAARDFINWLIQTKITK-OH [Compound no. 10]"
quantity = "Efficacy GLP-2R"
test_result = 23

[[record]]
substance = "H-Aib-DGTFISDY-K(γGlu-C16)-TILDNLAARDFINWLIETKITK-OH [Compound no. 32]"
quantity = "Efficacy GLP-2R"
test_result = 84

[[record]]
substance = "H-Aib-DGTFISDY-K(γGlu-C16)-TILDNLAARDFINWLIQTKGKKNDWKHNITQ-NH2 [Compound no. 14]"
quantity = "Efficacy GLP-2R"
test_result = 114

[[record]]
substance = "(C16)HADGTFISDYSTAibLDNLAARDFINWLIQTKITKNDWKHNITQ [Compound no. 53]"
quantity = "Efficacy GLP-2R"
test_result = 79

[[record]]
substance = "H-Aib-EG-K(γGlu-C16)-FISDYST-Aib-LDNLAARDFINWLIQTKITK-OH [Compound no. 27]"
quantity = "Efficacy GLP-2R"
test_result = 108

[[record]]
substance = "(C16-diacid)H-Aib-DGTFISDYST-Aib-LDKLAARDFIEWLIQTKITK-OH [Compound no. 22]"
quantity = "Efficacy GLP-2R"
test_result = 95

[[record]]
substance = "H-Aib-DGTFISDY-K(yglu-C10)-T-Aib-LDNLAARDFINWLIQTKITGNDWKHNITQ-OH [Compound no. 54]"
quantity = "Efficacy GLP-2R"
test_result = 87

[[record]]
substance = "(C16)H-Aib-DGTFISDYSTILD-Aib-LAARDFINWLIQTKITK-OH [Compound no. 6]"
quantity = "Efficacy GLP-2R"
test_result = 91


---

Target: rat GIPR (Rattus norvegicus, UniProt P43219)
Construct: expressed in transfected cells; host or cells: COS-7
Sequence (P43219 19-455): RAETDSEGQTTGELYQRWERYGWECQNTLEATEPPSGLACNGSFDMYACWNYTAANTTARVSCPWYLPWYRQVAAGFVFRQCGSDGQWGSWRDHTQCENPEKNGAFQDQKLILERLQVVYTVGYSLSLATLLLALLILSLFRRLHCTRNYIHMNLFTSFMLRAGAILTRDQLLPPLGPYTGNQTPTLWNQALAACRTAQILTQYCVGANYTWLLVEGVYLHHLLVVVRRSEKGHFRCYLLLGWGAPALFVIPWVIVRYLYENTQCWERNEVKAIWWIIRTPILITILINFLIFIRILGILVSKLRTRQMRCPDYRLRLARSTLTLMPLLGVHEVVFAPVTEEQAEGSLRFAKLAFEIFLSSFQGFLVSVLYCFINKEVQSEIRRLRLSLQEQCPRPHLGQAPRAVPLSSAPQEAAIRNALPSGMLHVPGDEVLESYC
Assay: HitHunter cAMP assay in transiently transfected COS-7 cells, rat GIPR
Type: cell-based
Settings: Emax normalized to highest concentration of endogenous ligand
Description: The next day the assay was initiated by washing with HEPES buffered saline (HBS) and followed by an incubation step with assay buffer (HBS added 1 mM isobutyl-1-methylxanthine (IBMX)) for 30 min at 37° C. […] Luminescence was measured by PerkinElmer™ EnVision 2014 Multilabel Reader (PerkinElmer, Waltham, MA). The potencies (EC50 values) were determined by nonlinear regression using GraphPad Prism 9 (San Diego, California, USA). […]
Param threshold (80%) applies to rGIPR Efficacy (%); output 1 (yes) when value >= threshold, 0 (no) when value < threshold.

[[record]]
substance = "H-Aib-DG-K(γGlu-C10)-FISDYST-Aib-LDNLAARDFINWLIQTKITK-OH [Compound no. 24]"
system = "rat GIPR (Rattus norvegicus, UniProt P43219)"
cat = "1 (yes)"

[[record]]
substance = "H-Aib-DGTFISDY-K(γGlu-C10)-TILDKLAARDFIEWLIATKITK-OH [Compound no. 31]"
system = "rat GIPR (Rattus norvegicus, UniProt P43219)"
cat = "1 (yes)"

[[record]]
substance = "H-Aib-DGTFISDYSTIL-K(γGlu-C16)-NLAARDFINWLIQTKITK-OH [Compound no. 13]"
system = "rat GIPR (Rattus norvegicus, UniProt P43219)"
cat = "0 (no)"

[[record]]
substance = "(C16)HADGTFISDYSTAibLDNLAARDFINWLIQTKITKNDWKHNITQ [Compound no. 53]"
system = "rat GIPR (Rattus norvegicus, UniProt P43219)"
cat = "0 (no)"

[[record]]
substance = "H-Aib-DGTFISDYS-K(γGlu-C16)-Aib-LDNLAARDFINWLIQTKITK-OH [Compound no. 35]"
system = "rat GIPR (Rattus norvegicus, UniProt P43219)"
cat = "1 (yes)"

[[record]]
substance = "(C10)H-Aib-DGTFISDYST-Aib-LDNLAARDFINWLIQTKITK-OH [Compound no. 44]"
system = "rat GIPR (Rattus norvegicus, UniProt P43219)"
cat = "1 (yes)"


---

# reported Efficacy GIPR; entries follow
Target: human GIPR (Homo sapiens, UniProt P48546)
Sequence (P48546 22-466): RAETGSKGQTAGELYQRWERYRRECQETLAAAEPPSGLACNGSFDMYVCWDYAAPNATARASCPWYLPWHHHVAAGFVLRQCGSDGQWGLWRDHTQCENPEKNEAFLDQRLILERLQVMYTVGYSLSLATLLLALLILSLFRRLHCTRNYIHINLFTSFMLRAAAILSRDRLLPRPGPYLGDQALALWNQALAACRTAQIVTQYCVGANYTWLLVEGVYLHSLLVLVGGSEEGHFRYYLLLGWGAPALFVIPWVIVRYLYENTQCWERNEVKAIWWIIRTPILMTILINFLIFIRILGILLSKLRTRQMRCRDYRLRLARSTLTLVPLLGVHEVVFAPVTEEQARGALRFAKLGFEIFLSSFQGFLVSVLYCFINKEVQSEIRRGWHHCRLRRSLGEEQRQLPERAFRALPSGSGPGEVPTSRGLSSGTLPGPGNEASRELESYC
Format: cell-based
Set-up: host or cells: COS-7
Details: Emax normalized to highest concentration of endogenous ligand; Table 2
QUANTITY: Efficacy GIPR

[[record]]
substance = "(C16-diacid)H-Aib-EGTFISDYST-Aib-LDKLAARDFINWLIQTKITK-OH [Compound no. 21]"
test_result = 86

[[record]]
substance = "(C16)HADGTFISDYSTILELLAARDFINWLIQTKITKNDWKHNITQ [Compound no. 15]"
test_result = 106

[[record]]
substance = "(C10-diacid)H-Aib-DGTFISDYST-Aib-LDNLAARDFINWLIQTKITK-OH [Compound no. 18]"
test_result = 77

[[record]]
substance = "(C16-diacid)H-Aib-DGTFISDYST-Aib-LDALAARDFIEWLIQTKITK-OH [Compound no. 20]"
test_result = 93

[[record]]
substance = "(C16)HADGTFISDYSTILDNLAAKDFINWLIQTKITK [Compound no. 45]"
test_result = 91

[[record]]
substance = "(C16-diacid)HADGTFISDYSTAibLDNLAARDFINWLIQTKITKNDWKHNITQ [Compound no. 39]"
test_result = 99

[[record]]
substance = "(C16-diacid)H-Aib-DGTFISDYST-Aib-LDKLAARDFINWLIETKITK-OH [Compound no. 23]"
test_result = 107

[[record]]
substance = "(C10)H-Aib-DGTFISDYST-Aib-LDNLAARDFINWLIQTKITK-OH [Compound no. 44]"
test_result = 110

[[record]]
substance = "(C16)H-Aib-DGTFISDYSTILDNLAARDFIEWLIQTKIT-OH [Compound no. 8]"
test_result = 108

[[record]]
substance = "H-Aib-DGTFISDY-K(γGlu-C10)-T-Aib-LDNLAARDFINWLIQTKITD-OH [Compound no. 30]"
test_result = 85

[[record]]
substance = "H-Aib-DG-K(γGlu- γGlu-C10)-FISDYSTILDNLAARDFINWLIQTKITK-OH [Compound no. 26]"
test_result = 80

[[record]]
substance = "(C16-diacid)H-Aib-DGTFISDYST-Aib-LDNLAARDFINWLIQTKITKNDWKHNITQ-OH [Compound no. 40]"
test_result = 94

[[record]]
substance = "H-Aib-DGTFISDY-K(γGlu-C16)-T-Aib-LDALAARDFIEWLIQTKITK-OH [Compound no. 33]"
test_result = 101

[[record]]
substance = "Ac-H-Aib-DGTFISDY-K(γGlu-C16)-T-Aib-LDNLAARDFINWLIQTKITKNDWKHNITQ-OH [Compound no. 38]"
test_result = 81

[[record]]
substance = "H-Aib-EG-K(γGlu-C16)-FISDYST-Aib-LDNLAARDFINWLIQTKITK-OH [Compound no. 27]"
test_result = 98

[[record]]
substance = "(C16-diacid)H-Aib-EGTFISDYST-Aib-LDNLAAKDFINWLIQTKITKNDWKHNITQ-OH [Compound no. 43]"
test_result = 101

[[record]]
substance = "H-Aib-DGTFISDYSTIL-K(γGlu-C16)-NLAARDFINWLIQTKITK-OH [Compound no. 13]"
test_result = 95

[[record]]
substance = "H-Aib-DGTFISDY-K(γGlu-C16)-T-Aib-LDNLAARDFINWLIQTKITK-OH [Compound no. 29]"
test_result = 104

[[record]]
substance = "(C16)HADGTFISDYSTILDNLAARDFINWLIQTKITKAEWKHAITQ [Compound no. 49]"
test_result = 105

